# System: Saccharomyces cerevisiae
# assay.overview: protein stability index of tFT-peptide fusion (C-terminal peptide) (PSI (0-1 scale)); higher = more stable (slower turnover);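 note: PSI is a weighted mean of sequencing reads over stability bins, variants kept only with over 10 reads, mCherry proximal and sfGFP distal, peptide attached via GGGS linker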
# condition.label: genetic background: wild type; temperature: 30 C
protein stability index values for the sequences below.
measured.quantity: protein stability index

INSERT INTO measurements (construct_sequence, numeric_value) VALUES
  ('PPPPPPPPTTVL', 0.709),
  ('VLVSSLSSSKFF', 0.647),
  ('YFFFYFFLLFHL', 0.375),
  ('GIGFHSREIGER', 0.66),
  ('WHLLRFETQMFC', 0.172),
  ('ETARENENTIGE', 0.657),
  ('AAAPWSVSGCPG', 0.661),
  ('KAEKNSKKTSTE', 0.698),
  ('FCCTPAPVPPST', 0.689),
  ('DSPRSLALFRSC', 0.642),
  ('SSLPSSLSPLTS', 0.699),
  ('LSKASNTLVDSD', 0.755),
  ('PPAPPSPPHPPL', 0.713),
  ('HRYRWPGLNSRL', 0.837),
  ('ARCKRSLSGGIG', 0.588),
  ('EVWMGIRSLSVV', 0.634),
  ('LPSHRSPITSFL', 0.668),
  ('PVASGYTMWSCV', 0.693),
  ('KKRQNIAKSEDT', 0.701),
  ('RAPDHRPGRLQK', 0.724),
  ('SIVESRGRGFRL', 0.697),
  ('WGGAGGGSGYGR', 0.68),
  ('AKRQRQQKKDKG', 0.626);

---

# Test system: Saccharomyces cerevisiae
# assay.overview: protein stability index of tFT-peptide fusion (C-terminal peptide) (PSI (0-1 scale)); higher = more stable (slower turnover)
# condition.label: genetic background: cdc34-1; temperature: 37 C
protein stability index values for the sequences below.
measured.quantity: protein stability index

INSERT INTO results (construct_sequence, measured_quantity, numeric_value) VALUES
  ('PFSLCFVFPFFF', 'protein stability index', 0.52),
  ('YFWWLWMSFWVG', 'protein stability index', 0.493),
  ('FLAPPFLPPPPA', 'protein stability index', 0.693),
  ('LSVYFSLSLCVS', 'protein stability index', 0.363),
  ('NRFRLFRLNFSV', 'protein stability index', 0.68),
  ('YFFFYFFLLFHL', 'protein stability index', 0.265),
  ('GRLVPVILLKLV', 'protein stability index', 0.301),
  ('LSRHLILFIVIR', 'protein stability index', 0.0962),
  ('FRVILISACESV', 'protein stability index', 0.565),
  ('SLRSLYLLARLS', 'protein stability index', 0.518),
  ('LVFFLFFFRCFS', 'protein stability index', 0.506),
  ('CLFRVCLFILSI', 'protein stability index', 0.397),
  ('SPLLPPPLLFLS', 'protein stability index', 0.596),
  ('YMVESVWVLLGT', 'protein stability index', 0.573),
  ('SWWGDVVWFVVC', 'protein stability index', 0.555),
  ('SFWLFSSIGVCF', 'protein stability index', 0.594),
  ('YMNLYKNVISVT', 'protein stability index', 0.473),
  ('GGVVAACRGGIG', 'protein stability index', 0.319),
  ('DIGCLWSKTRLC', 'protein stability index', 0.669),
  ('GGSHVWKFYRNF', 'protein stability index', 0.702),
  ('SSLLPLLAQLVG', 'protein stability index', 0.594),
  ('RCIFYHSPVLCL', 'protein stability index', 0.469),
  ('ISVSVVFFVLRF', 'protein stability index', 0.276),
  ('RFFFASRYIECF', 'protein stability index', 0.181),
  ('RCQILSYCLLFV', 'protein stability index', 0.419),
  ('FGGVFCVMARLV', 'protein stability index', 0.602),
  ('MSQVRYQRATRA', 'protein stability index', 0.657),
  ('WHVSLRFAFYVF', 'protein stability index', 0.246),
  ('WSCFLLLLSLSL', 'protein stability index', 0.424),
  ('FASALAPLSAVA', 'protein stability index', 0.48),
  ('SRDSLLTLIPSC', 'protein stability index', 0.646),
  ('CSRTRLHCFTAS', 'protein stability index', 0.696),
  ('SYLPSHVYIFLL', 'protein stability index', 0.275),
  ('LLHQSVHSHIPP', 'protein stability index', 0.637),
  ('FFLLSVVLKYSV', 'protein stability index', 0.0374),
  ('WALVLLVPVWFD', 'protein stability index', 0.442),
  ('FFFPFLCIAVSL', 'protein stability index', 0.464),
  ('VSFRISAIFVCV', 'protein stability index', 0.232),
  ('FFLFLVCLFFFS', 'protein stability index', 0.405),
  ('PVPPRVNLLRVS', 'protein stability index', 0.619),
  ('YPVGAAFIRARA', 'protein stability index', 0.45),
  ('VMRMVWVLGVMC', 'protein stability index', 0.281),
  ('HFLRYCSWFGLL', 'protein stability index', 0.656),
  ('AEIVCLTDGLLF', 'protein stability index', 0.715),
  ('VALAVRVVVCGA', 'protein stability index', 0.0316),
  ('GVRAGVRRAGVG', 'protein stability index', 0.308),
  ('LCIRHFRLLELL', 'protein stability index', 0.561),
  ('SLGHIGFWRFAG', 'protein stability index', 0.554),
  ('LYTFCSMDANPM', 'protein stability index', 0.397),
  ('PPPPLFLIVLHL', 'protein stability index', 0.52),
  ('KLRIVYAKVVCS', 'protein stability index', 0.547),
  ('YLVSFVAFLRLF', 'protein stability index', 0.336),
  ('LVRGSRLIVIVG', 'protein stability index', 0.444),
  ('LNSSVLRLRFFV', 'protein stability index', 0.542),
  ('VSPATFLFYFFF', 'protein stability index', 0.62),
  ('LISRLVLVFVIP', 'protein stability index', 0.38),
  ('WSFAPRLRCSYL', 'protein stability index', 0.927),
  ('VLGRCWWIVSDL', 'protein stability index', 0.736),
  ('CGILACSVCTFF', 'protein stability index', 0.547),
  ('FFACSLLFVLVF', 'protein stability index', 0.0985),
  ('VVGRWGFVVECW', 'protein stability index', 0.268),
  ('YTCFLFLLRCMT', 'protein stability index', 0.303),
  ('KEKKKTKHNKIG', 'protein stability index', 0.587),
  ('WIVQCCLYVPVQ', 'protein stability index', 0.288),
  ('FWGRAGVWRLKG', 'protein stability index', 0.684),
  ('VCPWGYCSEWGF', 'protein stability index', 0.772),
  ('YILIKEVLYAVC', 'protein stability index', 0.169),
  ('GRRPVVDFLPCL', 'protein stability index', 0.692),
  ('FLSLPLFILFLS', 'protein stability index', 0.229),
  ('VLVVLVVCRRAE', 'protein stability index', 0.247);
